Where do the numbers come from? From a melting point compilation (Tetko et al.; mined from patent text by program, amines drawn as free bases though some values may be those of a salt).

Quick reference for melting point among some compounds
measured.endpoint: melting point

1) CCn1ccc(Nc2cc(Cl)nn(C)c2=O)n1 : 173 to 175 °C
2) COCCc1cc(N2CCN(C)CC2)n2nc(SC)c(S(=O)(=O)c3ccccc3)c2n1 : 160 to 161 °C
3) CC1Cc2cc(S(N)(=O)=O)cc(C(=O)NCC3CCCN3Cc3ccccc3)c2O1 (stereo not given) : 161 to 167 °C
4) O=C(Nc1cccc2c1C(=O)c1c-2n[nH]c1-c1ccc(C(=O)N2CCC[C@@H]2CN2CCCC2)s1)NN1CCOCC1 : 166 to 167 °C
5) Cc1cc(SCC#Cc2ccc(Cl)cc2)ccc1OCC(=O)O : 106 to 108 °C
6) OCc1ncn(CCCc2ccc(OCc3coc(/C=C/c4ccccc4)n3)cc2)c1CO : 146 to 148 °C
7) COc1cccc2c1C(=O)N1CCC[C@H]1C(=O)N2 : 247 to 251 °C
8) CC(C)(C(O)c1ccc(Br)cc1)n1ncn(-c2ccc(N3CCN(c4ccc(O)cc4)CC3)cc2)c1=O (stereo not given) : 224 °C
9) N#Cc1[nH]n(C2CCCC2)c2nc(-c3ccncc3)nc(=O)c1-2 : > 300 °C
10) O=C1CCC(N2C(=O)c3cccc(CNC(=O)c4cncnc4)c3C2=O)C(=O)N1 (stereo not given) : > 260 °C
11) COc1ccc(CC(=O)Nc2c(C)c(C)c3oc(C)c(-c4ccc(C(C)C)cc4)c3c2C)cc1 : 202 to 204 °C
12) CC(=O)Nc1ccc(C[C@H](NC(=O)N(CCO)CCc2ccccc2)C(=O)NCCN(C)C)cc1 : 132 to 137 °C
13) CC(C)(C)OC(=O)c1ncn2c1C(C)(C)N(C(=O)N1CCCC1)c1cc(F)ccc1-2 : 168 to 170 °C
14) O=C(CCCCl)Nc1ccnn1-c1c(Cl)cc(C(F)(F)F)cc1Cl : 103 to 104 °C
15) COc1cccc(N(CC(=O)N(C)c2ccccc2)C(=O)CNC(=O)Nc2cccc(C)c2)c1 : 179 °C
